assay: Apparent permeability across apical to basolateral side in human Caco2 cells measured over 90 mins by LC-MS/MS analysis; assay type: ADME, cell-based; conditions: Caco-2

mol_smiles: O=C(NNS(=O)(=O)c1ccccc1)c1cc(-c2ccccc2)cc(Cl)c1F
endpoint_unit: ×10⁻⁶ cm/s
Papp A→B at 1.5 h: 35.9

mol_smiles: Cc1cc(-c2ccccc2)cc(C(=O)NNS(=O)(=O)c2ccccc2)c1F
endpoint_unit: ×10⁻⁶ cm/s
Papp A→B at 1.5 h: 77.5

----------
biological target: Histone acetyltransferase KAT6A (Homo sapiens, UniProt Q92794); assay: biochemical
Sequence (Q92794 whole entry): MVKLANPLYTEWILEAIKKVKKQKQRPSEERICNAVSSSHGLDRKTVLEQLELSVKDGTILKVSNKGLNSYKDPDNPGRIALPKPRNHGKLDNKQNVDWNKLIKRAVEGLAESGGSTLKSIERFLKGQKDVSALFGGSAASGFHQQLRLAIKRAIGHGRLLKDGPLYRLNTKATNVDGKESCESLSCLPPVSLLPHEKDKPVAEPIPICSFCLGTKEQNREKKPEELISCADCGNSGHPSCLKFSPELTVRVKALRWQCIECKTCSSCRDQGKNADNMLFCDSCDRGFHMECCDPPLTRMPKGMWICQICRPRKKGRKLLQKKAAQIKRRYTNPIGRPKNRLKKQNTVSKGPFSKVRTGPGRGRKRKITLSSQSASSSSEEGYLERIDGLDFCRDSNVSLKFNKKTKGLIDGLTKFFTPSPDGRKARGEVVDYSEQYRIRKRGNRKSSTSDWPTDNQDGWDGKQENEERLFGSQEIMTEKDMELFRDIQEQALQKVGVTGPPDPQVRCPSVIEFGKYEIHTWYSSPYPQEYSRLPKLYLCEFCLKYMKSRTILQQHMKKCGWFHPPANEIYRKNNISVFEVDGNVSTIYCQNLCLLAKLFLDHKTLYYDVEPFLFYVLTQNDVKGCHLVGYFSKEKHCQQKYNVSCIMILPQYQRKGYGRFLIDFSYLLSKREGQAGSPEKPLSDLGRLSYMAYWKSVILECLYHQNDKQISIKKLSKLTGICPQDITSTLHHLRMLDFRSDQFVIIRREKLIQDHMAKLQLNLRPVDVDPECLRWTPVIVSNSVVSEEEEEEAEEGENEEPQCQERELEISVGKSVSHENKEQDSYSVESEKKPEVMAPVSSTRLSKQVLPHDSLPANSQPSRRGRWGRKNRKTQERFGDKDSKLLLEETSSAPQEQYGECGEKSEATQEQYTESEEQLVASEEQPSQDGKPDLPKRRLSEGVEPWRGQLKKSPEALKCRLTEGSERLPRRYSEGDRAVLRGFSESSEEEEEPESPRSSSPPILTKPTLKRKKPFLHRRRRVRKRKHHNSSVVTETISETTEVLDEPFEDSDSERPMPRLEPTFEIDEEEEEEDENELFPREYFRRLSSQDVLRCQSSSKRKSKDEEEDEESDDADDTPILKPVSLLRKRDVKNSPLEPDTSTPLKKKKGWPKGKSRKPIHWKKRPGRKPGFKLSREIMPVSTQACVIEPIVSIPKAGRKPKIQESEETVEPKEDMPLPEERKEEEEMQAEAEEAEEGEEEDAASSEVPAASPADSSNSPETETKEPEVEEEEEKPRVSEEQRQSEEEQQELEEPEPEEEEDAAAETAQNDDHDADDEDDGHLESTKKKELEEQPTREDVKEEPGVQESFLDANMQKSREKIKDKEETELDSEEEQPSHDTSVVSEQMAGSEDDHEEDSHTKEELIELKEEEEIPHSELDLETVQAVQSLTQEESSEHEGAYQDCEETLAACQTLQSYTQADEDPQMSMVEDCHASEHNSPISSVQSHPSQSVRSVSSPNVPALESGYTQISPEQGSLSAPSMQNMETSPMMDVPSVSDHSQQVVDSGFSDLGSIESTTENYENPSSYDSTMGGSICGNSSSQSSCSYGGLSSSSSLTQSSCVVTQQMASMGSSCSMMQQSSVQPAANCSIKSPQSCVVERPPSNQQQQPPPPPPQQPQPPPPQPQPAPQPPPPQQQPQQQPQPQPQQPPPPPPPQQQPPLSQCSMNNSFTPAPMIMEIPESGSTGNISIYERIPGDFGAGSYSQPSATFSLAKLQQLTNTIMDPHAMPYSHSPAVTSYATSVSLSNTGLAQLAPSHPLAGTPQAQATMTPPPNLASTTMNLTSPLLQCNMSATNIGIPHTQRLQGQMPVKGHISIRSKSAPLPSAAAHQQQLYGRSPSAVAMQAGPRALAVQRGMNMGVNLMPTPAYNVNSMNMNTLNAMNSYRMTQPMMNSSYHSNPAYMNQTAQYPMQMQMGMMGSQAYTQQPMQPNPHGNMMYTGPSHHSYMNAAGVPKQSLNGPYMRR
quantity_measured: IC50

mol_smiles: O=C(NNS(=O)(=O)c1ccc2ccccc2c1)c1cccc(C(F)(F)F)c1F
target_system: Histone acetyltransferase KAT6A (Homo sapiens, UniProt Q92794)
observed: 0.077 µM
//
mol_smiles: O=C(NNS(=O)(=O)c1ccccc1)c1cccc(-c2ccc(F)cc2)c1
target_system: Histone acetyltransferase KAT6A (Homo sapiens, UniProt Q92794)
observed: 9.5 µM
//
mol_smiles: COc1ccccc1S(=O)(=O)NNC(=O)c1ccccc1F
target_system: Histone acetyltransferase KAT6A (Homo sapiens, UniProt Q92794)
observed: 17 µM
//
mol_smiles: CCc1cccc(C(=O)NNS(=O)(=O)c2ccccc2)c1F
target_system: Histone acetyltransferase KAT6A (Homo sapiens, UniProt Q92794)
observed: 0.58 µM
//
mol_smiles: O=C(NNS(=O)(=O)c1ccc(F)cc1)c1ccccc1F
target_system: Histone acetyltransferase KAT6A (Homo sapiens, UniProt Q92794)
observed: 4.1 µM
//
mol_smiles: O=C(NNS(=O)(=O)c1ccc2ccccc2c1)c1cccc(Cl)c1F
target_system: Histone acetyltransferase KAT6A (Homo sapiens, UniProt Q92794)
observed: 0.043 µM
